Molecular target: UniProt:O75469
Sequence (O75469 whole entry): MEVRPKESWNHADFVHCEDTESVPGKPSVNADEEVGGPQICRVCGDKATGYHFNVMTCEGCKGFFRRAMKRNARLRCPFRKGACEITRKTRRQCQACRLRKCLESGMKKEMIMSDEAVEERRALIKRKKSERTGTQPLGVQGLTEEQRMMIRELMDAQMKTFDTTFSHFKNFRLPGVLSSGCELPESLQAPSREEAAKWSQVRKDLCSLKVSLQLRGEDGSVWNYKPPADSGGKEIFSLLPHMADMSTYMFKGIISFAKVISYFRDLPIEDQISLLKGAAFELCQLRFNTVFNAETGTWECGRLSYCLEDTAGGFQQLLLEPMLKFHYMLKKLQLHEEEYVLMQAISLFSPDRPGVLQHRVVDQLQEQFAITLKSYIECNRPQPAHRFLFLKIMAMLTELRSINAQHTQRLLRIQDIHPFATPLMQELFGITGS
Assay: cell-based hPXR inverse agonistic assay
Settings: read-out: Inverse agonist (% inhibition at 10 μM)
Field: inhibition at 10 µM. Provide a value for each of the compounds that follow.
Just the number plus its unit, please.

>  <compound>
COc1ccc(OC)c(-n2nnc(C(=O)Nc3cc(C(C)(C)C)ccc3OCCN3CCOCC3)c2C)c1 [B15]

>  <assay_system>
UniProt:O75469

>  <inhibition at 10 µM>
81%

$$$$

# batch size: 7; output inhibition at 10 µM per entry
1. CCC(CC)Oc1ccc(C(C)(C)C)cc1NC(=O)c1nnn(-c2cc(OC)ccc2OC)c1C [B31]
2. COc1ccc(OC)c(-n2nnc(C(=O)Nc3cc(C(C)(C)C)ccc3OC(C)C)c2C)c1 [B12]
3. CCCCOc1ccc(NC(=O)c2nnn(-c3cc(OC)ccc3OC)c2C)cc1C(C)(C)C [C8]
4. COc1ccc(OC)c(-n2nnc(C(=O)Nc3cc(NCCN)cc(C(C)(C)C)c3)c2C)c1 [D10]
5. COc1ccc(OC)c(-n2nnc(C(=O)Nc3cc(NCC(=O)O)cc(C(C)(C)C)c3)c2C)c1 [D9]
6. COc1ccc(C)cc1-n1nnc(C(=O)Nc2ccc(OC)c(C(C)(C)C)c2)c1C [G3]
7. COC(=O)c1ccc(NC(=O)c2nnn(-c3cc(OC)ccc3OC)c2C)cc1N1CCCC1 [A22]

Out:
1: 111%; 2: 119%; 3: 73%; 4: 130%; 5: 107%; 6: 111%; 7: 129%
